Listed below: shrunken log2 fold change values for each entry.
- Test system: Escherichia coli TOP10;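 also: peptides expressed intracellularly from a pBAD plasmid library in pooled LB shake-flask culture, induced with 0.3% L-arabinose, DNA abundance read by NGS, three biological replicates, DESeq2 with apeglm shrinkage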
- Test Name: shrunken log2 fold change of peptide-encoding DNA abundance (4.5 h post-induction vs induction); higher = less antimicrobial activity (less host growth inhibition)
- Particulars: time post-induction: 4.5 h; library: site-saturation at positions 5, 18, 19, 20
Measurement Kind: shrunken log2 fold change

biosequence=RRIRIRPPRLPRPRPRPLYLPRP measurement_kind="shrunken log2 fold change" recorded_value=-1.08
biosequence=RRIRCRPPRLPRPRPRPCFCPRP measurement_kind="shrunken log2 fold change" recorded_value=-0.367
biosequence=RRIRKRPPRLPRPRPRPSANPRP measurement_kind="shrunken log2 fold change" recorded_value=0.0126
biosequence=RRIRQRPPRLPRPRPRPILDPRP measurement_kind="shrunken log2 fold change" recorded_value=0.0277
biosequence=RRIRIRPPRLPRPRPRPNKEPRP measurement_kind="shrunken log2 fold change" recorded_value=-0.131
biosequence=RRIRCRPPRLPRPRPRPKWGPRP measurement_kind="shrunken log2 fold change" recorded_value=0.496
biosequence=RRIRQRPPRLPRPRPRPHLTPRP measurement_kind="shrunken log2 fold change" recorded_value=-0.016

Source listed as the supplement of paper PMC9112550.
